# ASSAYED_SYSTEM: T1, IFNγR1 fused to the constant region of the antibody IgG1 (UniProt P15260 18-245, limits assumed)
# T1 construct: also called IFNGR1; Interferon gamma receptor 1 fused to the Fc region; not shown: constant region (Fc) of IgG1, captured on the chip by an anti-human IgG antibody
# T1 sequence (looked up): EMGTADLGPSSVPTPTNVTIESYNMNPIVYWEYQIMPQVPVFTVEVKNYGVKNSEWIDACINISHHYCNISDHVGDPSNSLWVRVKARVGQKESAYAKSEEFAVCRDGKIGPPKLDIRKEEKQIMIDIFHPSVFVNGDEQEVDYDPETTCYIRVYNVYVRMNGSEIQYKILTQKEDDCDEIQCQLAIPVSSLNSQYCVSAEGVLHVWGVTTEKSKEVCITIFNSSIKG
# PROTOCOL_DESCRIPTION: SPR (Biacore, CM5 chip), IFNγR1-IgG1 Fc captured by anti-human IgG, analyte injected
PROPERTY: kon (M⁻¹ s⁻¹)
Numeric only. Scale: M⁻¹ s⁻¹

Examples with their reported kon follow.
Sample Compound 2, mono-mPEG-MAL-20K-rhIFN-γ-1b-M135C (ligand, Cys135 thioether-linked to linear mPEG-maleimide of about 20,000 daltons (mPEG-MAL-20K), succinimide ring closed, also called mPEG-MAL-20K-M135C-IFN-γ; M135C 20K linear) MQDPYVKEAENLKKYFNAGHSDVADNGTLFLGILKNWKEESDRKIMQSQIVSFYFKLFKNFKDDQSIQKSVETIKEDMNVKFFNSNKKKRDDFEKLTNYSVTDLNVQRKAIHELIQVMAELSPAAKTGKRKRSQCLFRGR ; kon observed: 637000

Sample Compound 1, mono-mPEG-MAL-10K-rhIFN-γ-1b-M135C (ligand, Cys135 thioether-linked to linear mPEG-maleimide of about 10,000 daltons (mPEG-MAL-10K), succinimide ring closed, also called mPEG-MAL-10K-M135C-IFN-γ; M135C 10K linear) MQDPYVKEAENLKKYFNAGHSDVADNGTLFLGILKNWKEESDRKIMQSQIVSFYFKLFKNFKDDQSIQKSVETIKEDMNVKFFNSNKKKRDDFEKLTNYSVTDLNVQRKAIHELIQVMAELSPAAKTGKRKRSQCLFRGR ; kon observed: 1.61e+06

Sample rhIFN-γ-1b (wild-type recombinant human interferon-γ-1b) (ligand, also called wt (rhIFN-γ-1b); WT IFN-γ-1b (Actimmune)) MQDPYVKEAENLKKYFNAGHSDVADNGTLFLGILKNWKEESDRKIMQSQIVSFYFKLFKNFKDDQSIQKSVETIKEDMNVKFFNSNKKKRDDFEKLTNYSVTDLNVQRKAIHELIQVMAELSPAAKTGKRKRSQMLFRGR ; kon observed: 1.07e+07

New cases:
Sample rhIFN-γ-1b-S66C cysteine mutein (ligand, also called IFN-γ-S66C; hIFN-γ S66C) MQDPYVKEAENLKKYFNAGHSDVADNGTLFLGILKNWKEESDRKIMQSQIVSFYFKLFKNFKDDQCIQKSVETIKEDMNVKFFNSNKKKRDDFEKLTNYSVTDLNVQRKAIHELIQVMAELSPAAKTGKRKRSQMLFRGR ; kon observed: 2.57e+06

Sample Compound 3, mono-mPEG2-ru-MAL-20K-rhIFN-γ-1b-M135C (ring closed) (ligand, Cys135 thioether-linked to branched mPEG2-maleimide of about 20,000 daltons (mPEG2-MAL-20K), succinimide ring closed, also called mPEG2-MAL-20K-M135C-IFN-γ; M135C 20K branched (RC)) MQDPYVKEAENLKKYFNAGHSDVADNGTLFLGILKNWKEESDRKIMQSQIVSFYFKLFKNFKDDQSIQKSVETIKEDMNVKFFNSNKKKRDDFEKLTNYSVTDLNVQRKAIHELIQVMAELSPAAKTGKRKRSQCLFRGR ; kon observed: 321000
